- method: CCTE_Simmons_CellTiterGLO_HEK293T: Viability Assessment in CCTE's Assays for Thyroperoxidase (TPO) Inhibition, Simmons Lab (AID 2283665)
Results filed as inconclusive are left out. Calls of active or inactive are those of the source. The calls were made as follows: active = hit-call score of the fitted dose curve at least 0.9, where 1 is the maximum; inconclusive = response in the unintended direction; inactive = score below 0.9.
Result category, one only: TRUE for active, FALSE for inactive

Worked examples, 3 compounds total:
> print(dat)
                                   compound  classification
1  CC1COC(Cn2cncn2)(c2ccc(Oc3ccc(Cl)cc3)cc2Cl)O1 (configuration not stated)            TRUE
2  C=CCC1=C(C)C(OC(=O)C2C(C=C(C)C)C2(C)C)CC1=O (configuration not stated)            TRUE
3               O=C(Nc1ccccc1)Nc1ccnc(Cl)c1            TRUE

## Task Recorded test outcome, item CCOP(=S)(OCC)SCn1c(=O)oc2cc(Cl)ccc21
## Result TRUE

## Task Call for entry CON(C)C(=O)Nc1ccc(Cl)c(Cl)c1 :
## Result FALSE

## Task I would be grateful if you could indicate the recorded call for CN(C)C(=S)SSC(=S)N(C)C .
## Result TRUE

## Task What classification did Oc1ccccc1-c1ccccc1 end up with in this test?
## Result TRUE

---

- Read-out: succinate dehydrogenase complex iron sulfur subunit B (SDHB), SDHB (gene 6390)
- method: LTEA_HepaRG_SDHB: Life Technologies and Expression Analysis (LTEA) Assay for succinate dehydrogenase complex iron sulfur subunit B (SDHB) using HepaRG (AID 2283528)
- setup-conditions: mRNA level, 48 h; actives raise or lower the signal
The source made the active and inactive calls. Rule for the calls: active = hit-call score of the fitted dose curve at least 0.9, where 1 is the maximum; inactive = score below 0.9.
Give your call using only these classes: active, inactive

> print(dat)
                                   compound  classification
1  CC(Oc1ccc(Cl)cc1Cl)C(=O)O (configuration not stated)        inactive
2  CCON=C(CC)C1=C(O)CC(c2c(C)cc(C)cc2C)CC1=O (configuration not stated)        inactive
3  N#Cc1nn(-c2c(Cl)cc(C(F)(F)F)cc2Cl)c(N)c1S(=O)C(F)(F)F (configuration not stated)        inactive
4                          CCCCNC(=O)OCC#CI        inactive
5                      O=C(O)c1nc(Cl)ccc1Cl        inactive

## Task Which outcome was assigned to CN(C)C(=S)SSC(=S)N(C)C in this test?
## Result inactive

## Task Entry CC(C)(C)c1ccc(CSc2cnn(C(C)(C)C)c(=O)c2Cl)cc1 : call = ?
## Result active

---

- experimental-system: human Retinoic Acid Receptor gamma (RARg), RARG (gene 5916) (UniProt P13631)
- Sequence (P13631 whole entry, looked up): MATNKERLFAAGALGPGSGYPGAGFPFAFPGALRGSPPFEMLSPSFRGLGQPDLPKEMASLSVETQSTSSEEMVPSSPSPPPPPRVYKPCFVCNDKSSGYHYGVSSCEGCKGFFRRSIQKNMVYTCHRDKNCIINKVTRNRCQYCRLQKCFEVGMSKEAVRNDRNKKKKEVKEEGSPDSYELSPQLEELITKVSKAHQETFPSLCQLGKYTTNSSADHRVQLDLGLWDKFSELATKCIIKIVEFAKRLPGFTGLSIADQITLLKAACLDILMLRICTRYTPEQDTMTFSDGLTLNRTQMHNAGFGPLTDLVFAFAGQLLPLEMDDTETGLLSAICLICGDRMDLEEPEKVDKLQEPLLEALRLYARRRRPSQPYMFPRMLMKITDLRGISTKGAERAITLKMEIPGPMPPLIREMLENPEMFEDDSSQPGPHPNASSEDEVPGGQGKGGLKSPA
- method: ATG_RARg_TRANS: Attagene TRANS-FACTORIAL HepG2 Assay for human Retinoic Acid Receptor gamma (RARg) (AID 2283009)
- Experimental: ATG_TRANS is a cell-based, multiplexed-readout assay that uses HepG2, a human liver cell line, with measurements taken at 24 hours after chemical dosing in a 24-well plate.ATG_RARg_TRANS is one of 30 assay component(s) measured or calculated from the ATG_TRANS assay. […] This assay endpoint, ATG_RARg_TRANS, was analyzed in the positive analysis fitting direction relative to DMSO as the negative control and baseline of activity. […]
Records with an inconclusive call do not appear. Active and inactive are the calls of the source. How the source made its calls: active means hit-call score of the fitted dose curve at least 0.9, where 1 is the maximum; inconclusive means response in the unintended direction; inactive means score below 0.9.
measured-parameter: outcome

Example entries begin here.
> print(dat)
                                   compound  value.reported
1  CCCN(CCC)c1c([N+](=O)[O-])cc(S(N)(=O)=O)cc1[N+](=O)[O-]        inactive
2  CC(C)C1(C)N=C(c2nc3ccccc3cc2C(=O)O)NC1=O (stereo not drawn)        inactive
3                    CN(C)C(=S)SSC(=S)N(C)C        inactive
4  CO/C=C(/C(=O)OC)c1ccccc1Oc1cc(Oc2ccccc2C#N)ncn1        inactive
5              CON(C)C(=O)Nc1ccc(Cl)c(Cl)c1        inactive

## Task Requested read-out: outcome. Entry: CCCCC(CC)COC(=O)c1ccccc1C(=O)OCC(CC)CCCC (stereo not drawn)
## Result inactive

## Task I am curious: what outcome value has been reported for CC(C)Oc1cc(-n2nc(C(C)(C)C)oc2=O)c(Cl)cc1Cl ?
## Result inactive

## Task Form field: reported outcome of Cc1ccc(-c2c(Cl)nc(C#N)n2S(=O)(=O)N(C)C)cc1
## Result inactive

## Task May I ask what outcome has been recorded for C#CCOS(=O)OC1CCCCC1Oc1ccc(C(C)(C)C)cc1 (stereo not drawn) ?
## Result inactive

## Task Return reported outcome; argument: N#CC(CCc1ccc(Cl)cc1)(Cn1cncn1)c1ccccc1 (stereo not drawn)
## Result inactive

## Task // outcome lookup, key: CCCC1COC(Cn2cncn2)(c2ccc(Cl)cc2Cl)O1 (stereo not drawn)
## Result inactive
